The binders listed here are annotated with their % fast.
# STUDY_SYSTEM: T1, recombinant human VEGF165 (human, UniProt P15692-4 27-191)
# T1 construct: also called hVEGF165; rhVEGF165
# T1 sequence (P15692 other isoform, or with tags, fused parts or gaps limits assumed): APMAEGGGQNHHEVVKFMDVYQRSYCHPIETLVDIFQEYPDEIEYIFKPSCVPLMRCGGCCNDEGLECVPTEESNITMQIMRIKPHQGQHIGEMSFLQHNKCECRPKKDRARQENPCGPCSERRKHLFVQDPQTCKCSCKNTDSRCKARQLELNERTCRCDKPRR
# TEST_NAME: Biacore, periplasmic extract on hVEGF165 chip, two phase decay fit
Express your answer in %, writing the number without its unit.

Challenge: Need % fast, item VEGFBII23D11 (VHH, periplasmic extract) VHH: EVQLVESGGGLVQPGDSLRLSCAFSGRTFSSYSMAWFRQAQGKEREFVVAISSGGFIYDAVSLEGRFTISRDNTKNTVYLQTPSLKPEDTAVYYCAASRAYGSSRLRLADTYDYWGQGTQVTVSS
Response given: 13

Challenge: Follow-up item: VEGFBII23B04 (VHH, also called VEGFBII23B4; VEGFBII23B04 (wt)) VHH: EVQLVESGGGLVQTGDSLRLSCEVSGRTFSSYSMGWFRQAQGKEREFVVAISKGGYKYDSVSLEGRFTISKDNAKNTVYLQINSLKPEDTAVYYCASSRAYGSSRLRLADTYEYWGQGTQVTVSS
Response given: 12

Challenge: Follow-up entry: VEGFBII22A10 (VHH, periplasmic extract) VHH: EVQLVESGGGLVQPGDSLKLSCAFSGRTFSSYSMGWFRQAQGKEREFVVAISSSGGYIYDSVSLEGRFTISRDNTKNTVYLQTPSLKPEDTADYYCAASRAYGSSRLRLADTYDYWGQGTQVTVSS
Response given: 19

Challenge: // repeat for VEGFBII23F11 (VHH, periplasmic extract) VHH: EVQLVESGGGLVQPGDSLKLSCAFSGRTFSSYSMGWFRQAQGKEREFVVAISSGGGYIYDSVSLEGRFTISRDNTKNTVYLQTPSLKPEDTADYYCAASRAYGSSRLRLADTYDYWGQGTQVTVSS and report
Response given: 22

Challenge: Another: VEGFBII40H10 (VHH, periplasmic extract) VHH: EVQLMESGGGLVQPGDSLKLSCAFSGRTFSSYSMGWFRQAQGKEREFVVAISSSGGYIYDSVSLEGRFTISRDNTKNTVYLQTPSLKPEDTADYYCAASRAYGSSRLRLADTYDYWGQGTQVTVSS
Response given: 17

Challenge: Another binder to look at: VEGFBII22B06 (VHH, periplasmic extract) VHH: EVQLVESGGGLVQPGDSLKLSCAASGRTFSSYSMGWFRQAQGKEREFVVAISSSGGYIYDSVSLEGRFTISRDNTKNTVYLQTPSLKPEDTAVYYCAASRAYGSSRLRLADTYDYWGQGTQVTVSS
Response given: 23

Challenge: Consider next the binder VEGFBII42F11 (VHH, periplasmic extract) VHH: EVQLVESGGGLVQPGDSLKLSCVASGRTSSSYSVGWFRQAQGKEREFVVAISSGGYIYDSVSLQGRFTISRDNTKNTVYLQTPSLKPEDTAVYYCAASRAYGSSRLRLADTYDYWGQGTQVTVSS in the same way.
Response given: 46

Challenge: Same again, this time with VEGFBII23A03 (VHH, periplasmic extract) VHH: EVQLVESGGGLVQPGDSLKLSCVASGRTFSSYSMGWFRQAQGKEREFVVAISSGGYIYDSVSLQGRFTISRDNTKNTVYLQTPSLKPEDTAVYYCAASRAYGSSRLRLADTYDYWGQGTQVTVSS
Response given: 15
